# measured.target: CRTh2 receptor (Homo sapiens)
# procedure.summary: CRTh2 cAMP functional assay
# reported.conditions: CHO cells stably transfected with CRTh2; 10 nM Prostaglandin D2 and 5 μM forskolin; cAMP Alphascreen
quantity.kind: IC50

smi=O=C(O)COc1ccc(Br)cc1C1CCCCC1 measured_target="CRTh2 receptor (Homo sapiens)" endpoint_value="190 nM"
smi=O=C(O)COc1ccc(C(F)(F)F)cc1C1CCCCC1 measured_target="CRTh2 receptor (Homo sapiens)" endpoint_value="139 nM"
smi=O=C(O)COc1ccc(Br)cc1C1CCCCCC1 measured_target="CRTh2 receptor (Homo sapiens)" endpoint_value="138 nM"
smi=O=C(O)COc1ccc(Cl)cc1C1CCCCCC1 measured_target="CRTh2 receptor (Homo sapiens)" endpoint_value="148 nM"

---

Listed here: items and their measured pKi.
# measured.target: CRTh2 receptor (Homo sapiens)
# procedure.summary: Scintillation Proximity Assay (SPA) binding assay, 3H prostaglandin D2
# Parameters: expressed in transfected cells; host or cells: K562 or CHO cells (membranes)
# reported.conditions: membranes from K562 or CHO cells stably transfected with human CRTh2; 3H prostaglandin D2; read-out: Ki values in the SPA binding assay
pKi: −log10 of the molar value.
quantity.kind: pKi

compound="O=C(O)COc1ccc(Br)cc1C1CCCCCC1 [Example 5]" quantity_kind=pKi endpoint_value=7.15
compound="O=C(O)COc1ccc(C(F)(F)F)cc1C1CCCCC1 [Example 13]" quantity_kind=pKi endpoint_value=7.68

---

# measured.target: CRTh2 receptor (Homo sapiens, UniProt Q9Y5Y4)
# Sequence (Q9Y5Y4 1-395): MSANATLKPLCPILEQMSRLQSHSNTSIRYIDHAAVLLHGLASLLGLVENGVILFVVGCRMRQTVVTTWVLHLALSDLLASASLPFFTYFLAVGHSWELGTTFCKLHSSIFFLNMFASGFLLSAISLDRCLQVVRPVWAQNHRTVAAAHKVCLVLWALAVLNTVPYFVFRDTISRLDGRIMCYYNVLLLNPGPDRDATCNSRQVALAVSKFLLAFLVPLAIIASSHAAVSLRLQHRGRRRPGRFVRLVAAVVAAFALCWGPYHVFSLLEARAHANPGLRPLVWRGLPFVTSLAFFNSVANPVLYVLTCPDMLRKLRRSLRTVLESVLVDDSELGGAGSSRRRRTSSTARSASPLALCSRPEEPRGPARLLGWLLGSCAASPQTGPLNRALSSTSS
# procedure.summary: Scintillation Proximity Assay (SPA) binding assay, 3H prostaglandin D2
# Parameters: expressed in transfected cells; host or cells: K562 or CHO cells (membranes)
quantity.kind: Ki (nM)

smi=O=C(O)COc1ccc(Cl)cc1C1CCCCCC1 scale_unit=nM endpoint_value=60
